Numbers sourced from patent US10059674B2.

- assay_procedure: In vivo pharmacokinetic test, drug concentration in blood plasma by LC-MS/MS
- Design: species or system SD rats
- condition_details: male, SD, rat, plasma, po, 10 mg/kg, SD rats, oral 10 mg/kg, 8 h, animal 201M
endpoint_label: concentration at 8 h (ng/mL)
Report as a plain number; the unit ng/mL is understood.

Suppose we examine the compound CCOc1cccc(Nc2nn(C)c3c2Cc2cc(OCC)c(OCC(N)=O)cc2-3)c1 ; what concentration at 8 h value has been reported?
451

----------
- assay_procedure: In vivo pharmacokinetic test, drug concentration in blood plasma by LC-MS/MS
- Set-up: species or system SD rats
- condition_details: male, SD, rat, plasma, iv, 1 mg/kg, male SD rats, single intravenous 1 mg/kg, animal 102M
endpoint_label: Cmax
State the value, then name its unit.

Suppose we examine the compound CCOc1cccc(Nc2nn(C)c3c2Cc2cc(OCC)c(OCC(N)=O)cc2-3)c1 ; what Cmax value has been reported?
2400 ng/mL

----------
- assay_procedure: In vivo pharmacokinetic test, drug concentration in blood plasma by LC-MS/MS
- Design: species or system SD rats
- condition_details: male, SD, rat, plasma, iv, 1 mg/kg, SD rats, intravenous 1 mg/kg, 0.08 h, animal 101M
endpoint_label: concentration at 0.08 h (ng/mL)
Report as a plain number; the unit ng/mL is understood.

Suppose we examine the compound CCOc1cccc(Nc2nn(C)c3c2Cc2cc(OCC)c(OCC(N)=O)cc2-3)c1 [LL-01] ; what concentration at 0.08 h value has been reported?
2720

----------
- assay_procedure: In vivo pharmacokinetic test, drug concentration in blood plasma by LC-MS/MS
- Design: species or system SD rats
- condition_details: SD, rat, plasma, po, 10 mg/kg, SD rats, oral 10 mg/kg, 1 h, animal 202M
endpoint_label: concentration at 1 h (ng/mL)
Report as a plain number; the unit ng/mL is understood.

Suppose we examine the compound CCOc1cccc(Nc2nn(C)c3c2Cc2cc(OCC)c(OCC(N)=O)cc2-3)c1 ; what concentration at 1 h value has been reported?
1100

----------
- assay_procedure: In vivo pharmacokinetic test, drug concentration in blood plasma by LC-MS/MS
- Design: species or system SD rats
- condition_details: male, SD, rat, plasma, iv, 1 mg/kg, SD rats, intravenous 1 mg/kg, 2 h, animal 103M
endpoint_label: concentration at 2 h (µg/mL)
Report as a plain number; the unit µg/mL is understood.

Suppose we examine the compound CCOc1cccc(Nc2nn(C)c3c2Cc2cc(OCC)c(OCC(N)=O)cc2-3)c1 ; what concentration at 2 h value has been reported?
0.512

----------
- assay_procedure: In vivo pharmacokinetic test, drug concentration in blood plasma by LC-MS/MS
- Parameters: species or system SD rats
- condition_details: male, SD, rat, plasma, iv, 1 mg/kg, SD rats, intravenous 1 mg/kg, 0.08 h, Mean
endpoint_label: concentration at 0.08 h (ng/mL)
Report as a plain number; the unit ng/mL is understood.

Suppose we examine the compound CCOc1cccc(Nc2nn(C)c3c2Cc2cc(OCC)c(OCC(N)=O)cc2-3)c1 ; what concentration at 0.08 h value has been reported?
2600

----------
- assay_procedure: In vivo pharmacokinetic test, drug concentration in blood plasma by LC-MS/MS
- Parameters: species or system SD rats
- condition_details: male, SD, rat, plasma, iv, 1 mg/kg, male SD rats, single intravenous 1 mg/kg, animal 103M; read-out: Cl—pred (converted)
endpoint_label: clearance (mL/min/kg)
Report as a plain number; the unit mL/min/kg is understood.

Suppose we examine the molecule CCOc1cccc(Nc2nn(C)c3c2Cc2cc(OCC)c(OCC(N)=O)cc2-3)c1 [LL-01] ; what clearance value has been reported?
5
